Organism: Rattus norvegicus
Assay: Open TG-GATES - Regimen: Daily Repeat
Type: toxicity, organism-based, Sprague-Dawley
Set-up: regimen Daily Repeat, gender Male, age 6 weeks
Details: in vivo, po, 0 mg/kg, […], tissue Liver, route gavage, dose level Control, time 14 day
reportedMetric: LIVER (g)
Express it in g; write the number only.

> print(dat)
                                   molecule  measurementunit  recordedmeasurement
1  C1CCC(C(CC2CCCCN2)C2CCCCC2)CC1 (stereo not given)                g                 12.3
2               Cc1cccc(Nc2ccccc2C(=O)O)c1C                g                 13.7
3  CC(CN1c2ccccc2Sc2ccccc21)N(C)C (stereo not given)                g                 15.1

Provide measured LIVER value, entry: "Clc1c(Cl)c(Cl)c(Cl)c(Cl)c1Cl"
15.7

Provide measured LIVER value, entry: "CN(C)[C@@H]1C(O)=C(C(N)=O)C(=O)[C@@]2(O)C(O)=C3C(=O)c4c(O)cccc4[C@@](C)(O)[C@H]3C[C@@H]12"
13.5

----------
Organism: Rattus norvegicus
Assay: Open TG-GATES - Regimen: Single
Format: toxicity, organism-based, Sprague-Dawley
Set-up: regimen Single, gender Male, age 6 weeks
Details: in vivo, po, 0 mg/kg, 9 h, tissue Kidney, route gavage, dose level Control
reportedMetric: KIDNEY_L (g)
Express it in g; write the number only.

Would you please look over these solved cases?
compound	reportedMetric	recordedMeasurement
Clc1c(Cl)c(Cl)c(Cl)c(Cl)c1Cl	KIDNEY_L	1
CN(C)[C@@H]1C(O)=C(C(N)=O)C(=O)[C@@]2(O)C(O)=C3C(=O)c4c(O)cccc4[C@@](C)(O)[C@H]3C[C@@H]12	KIDNEY_L	0.9
CN1C(C(=O)Nc2ccccn2)=C(O)c2sc(Cl)cc2S1(=O)=O	KIDNEY_L	1
C#C[C@]1(O)CC[C@H]2[C@@H]3CCC4=Cc5oncc5C[C@]4(C)[C@H]3CC[C@@]21C	KIDNEY_L	1
CC(=O)Nc1nnc(S(N)(=O)=O)s1 [ACETAZOLAMIDE]	KIDNEY_L	1
CC(CN1c2ccccc2Sc2ccccc21)N(C)C (stereo not given)	KIDNEY_L	1
CCOC(=O)[C@H](CCc1ccccc1)N[C@@H](C)C(=O)N1CCC[C@H]1C(=O)O	KIDNEY_L	1
Cc1cccc(Nc2ccccc2C(=O)O)c1C	KIDNEY_L	1
COc1cc([C@@H]2c3cc4c(cc3[C@@H](O[C@@H]3O[C@@H]5CO[C@@H](C)O[C@H]5[C@H](O)[C@H]3O)[C@H]3COC(=O)[C@H]23)OCO4)cc(OC)c1O [ETOPOSIDE]	KIDNEY_L	0.9

Provide measured KIDNEY_L value, entry: C1CCC(C(CC2CCCCN2)C2CCCCC2)CC1 (stereo not given)
0.9

----------
Property: ALP; scope: individual compounds
Organism: Rattus norvegicus
Experiment: Open TG-GATES - Regimen: Daily Repeat
Assay type: toxicity, organism-based, Sprague-Dawley
Parameters: regimen Daily Repeat, gender Male, age 6 weeks
Conditions: in vivo, po, 0 mg/kg, […], tissue Plasma, route gavage, dose level Control, time 7 day
Express it in IU/L; write the number only.

Would you please look over these solved cases?
> print(dat)
                                   compound  measurementunit  recordedmeasurement
1  C1CCC(C(CC2CCCCN2)C2CCCCC2)CC1 (centres undefined) [PERHEXILINE]             IU/L                 1691
2  CC(CN1c2ccccc2Sc2ccccc21)N(C)C (centres undefined) [PROMETHAZINE]             IU/L               1379.8
3  C#C[C@]1(O)CC[C@H]2[C@@H]3CCC4=Cc5oncc5C[C@]4(C)[C@H]3CC[C@@]21C [DANAZOL]             IU/L               1763.8

Next up:
Provide measured ALP value, entry: CN1C(C(=O)Nc2ccccn2)=C(O)c2sc(Cl)cc2S1(=O)=O [LORNOXICAM]
1004.8
